assay: Partition coefficient (logD7.4); format: physicochemical; conditions: octanol/water, pH 7.4
logD vs 1: less than gives yes; not less than gives no.

Determine whether this molecule shows logD lower than 1 (ties excluded): CCCCNCc1ccc(C(=O)c2csc(S(N)(=O)=O)c2)cc1.Cl
yes

In the record for CN1CCN(Cc2ccccc2S(=O)(=O)c2csc(S(N)(=O)=O)c2)CC1.Cl , is logD less than 1?
no

Hello, I'm reviewing records and need to know if logD of Cl.NS(=O)(=O)c1cc(C(=O)c2cccc(CN3CCOCC3)c2)cs1 is below 1. Could you check?
no

A record lists CN1CCN(Cc2ccc(S(=O)(=O)c3csc(S(N)(=O)=O)c3)cc2)CC1.Cl . Is its logD below 1?
yes

Determine if CCC(C)NCc1cccc(S(=O)(=O)c2csc(S(N)(=O)=O)c2)c1.Cl (centres undefined) shows logD strictly lower than 1.
yes

For this molecule, is logD lower than 1? CN1CCN(Cc2ccc(C(=O)c3csc(S(N)(=O)=O)c3)cc2)CC1.Cl
yes

Answer whether the molecule Cl.NS(=O)(=O)c1cc(C(=O)c2ccc(CN3CCOCC3)cc2)cs1 has logD strictly less than 1
no

I'd appreciate it if you could check whether COc1ccc(S(=O)(=O)c2coc(S(N)(=O)=O)c2)cc1 has logD smaller than 1.
no

Values compiled from ChEMBL document CHEMBL1125318.
